target: I2-receptor; experiment: I2-receptor binding, [3H]-idazoxan displacement in human brain homogenates; settings: human brain homogenates, Table 5; read-out: Receptor Affinities (nM) I2
Overview of recorded Ki for various compounds

[
  {
    "Compound": "COC1(C2=NCCN2)COc2ccccc2O1 (stereo not shown) [Methoxyidazoxan]",
    "Ki": "> 100000 nM"
  },
  {
    "Compound": "c1ccc2c(c1)OCC(C1=NCCN1)O2 (stereo not shown) [Idazoxan, 2-(1,4-benzodioxan)-imidazoline]",
    "Ki": "4.8 nM"
  },
  {
    "Compound": "C[C@@H](NC1=NCCO1)C1CCCCC1 [(R)-(−)-O504]",
    "Ki": "2700 nM"
  },
  {
    "Compound": "c1ccc2nc(C3=NCCN3)ccc2c1 [BU-224, 2-(4,5-dihydroimidaz-2-yl)quinoline]",
    "Ki": "2.2 nM"
  },
  {
    "Compound": "CCC1CCCC(CC)C1NC1=NCCO1 (stereo not shown) [Compound O501]",
    "Ki": "9100 nM"
  },
  {
    "Compound": "C1CCC(C(NC2=NCCO2)C2CCCCC2)CC1 [Compound O503]",
    "Ki": "4800 nM"
  },
  {
    "Compound": "CCC1CCCC(C)C1NC1=NCCO1 (stereo not shown) [BAY-A6781]",
    "Ki": "8250 nM"
  },
  {
    "Compound": "C1COC(NC(C2CC2)C2CC2)=N1 [Rilmenidine]",
    "Ki": "5220 nM"
  },
  {
    "Compound": "C[C@H](NC1=NCCO1)C1CCCCC1 [(S)-(+)-O504]",
    "Ki": "2190 nM"
  },
  {
    "Compound": "C[C@H](NC1=NCCO1)c1cccc2ccccc12 [(S)-(−)-O506]",
    "Ki": "7580 nM"
  }
]
